Values were extracted from patent US12590062B2.

# TGT: PD-1/PD-L1 interaction (Homo sapiens, UniProt Q9NZQ7)
# Construct: expressed in transfected cells; host or cells: CHO cells (aAPC-PD-L1) co-cultured with Jurkat cells overexpressing PD-1 and an NFAT-luciferase reporter
# Sequence (Q9NZQ7 19-290): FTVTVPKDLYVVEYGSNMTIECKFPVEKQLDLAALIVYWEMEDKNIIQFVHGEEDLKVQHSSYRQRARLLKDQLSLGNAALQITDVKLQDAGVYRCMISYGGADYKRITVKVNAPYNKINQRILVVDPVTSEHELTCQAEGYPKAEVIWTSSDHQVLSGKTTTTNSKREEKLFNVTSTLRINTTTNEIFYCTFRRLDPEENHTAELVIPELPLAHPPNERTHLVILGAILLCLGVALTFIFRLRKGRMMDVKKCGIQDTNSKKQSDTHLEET
# TEST PROTOCOL: PD-1/PD-L1 NFAT reporter co-culture assay
# Assay type: cell-based
# ASSAY CONDITIONS: Jurkat PD-1 NFAT-luciferase cells co-cultured with aAPC-PD-L1 CHO cells, 6 hrs at 37° C.; read-out: EC50 NFAT Luciferase
pEC50: −log10 of the molar value.
MEASUREMENT NAME: pEC50

State the recorded pEC50 for this entry: C=CCOc1nc(OCc2cccc(-c3cccc(COc4nc(OCC=C)c(CNC[C@@H](O)CC(=O)O)cc4Br)c3C)c2C)c(Br)cc1CNC[C@@H](O)CC(=O)O [Example 151]
≤ 4.30

Please report the recorded pEC50 for COc1nc(OCc2cccc(-c3cccc(COc4nc(OC)c(CNCC(=O)NS(=O)(=O)N(C)C)cc4Cl)c3C)c2C)c(Cl)cc1CNCC(=O)NS(=O)(=O)N(C)C [Example 174] .
≤ 4.30

Look up pEC50: C[C@@](CO)(NCc1cc(Cl)c(O[C@H]2CCc3c(-c4cccc5c4CC[C@@H]5Oc4nc(OCc5cncc(S(C)(=O)=O)c5)c(CN5CC[C@@H](O)C5)cc4Cl)cccc32)nc1OCc1cncc(S(C)(=O)=O)c1)C(=O)O [Example 688]
≤ 4.30
